Source: ChEMBL document CHEMBL3885881

Property: PLATELET COUNT; scope: individual compounds
Species: Rattus norvegicus
test: DrugMatrix - Regimen: Daily Repeat
Assay type: toxicity, organism-based, Sprague-Dawley
Parameters: regimen Daily Repeat, gender Male, age 6-8 weeks
protocol.conditions: in vivo, po, 0 mg/kg, 72 h, tissue Blood, route oral GAVAGE, dose level Control, time 3 day, vehicle 100 % SALINE
Hi! Could you send only the number? It should be in x10E3/uL, unit omitted.

compound	observed.result
Cc1ccnc2c1NC(=O)c1cccnc1N2C1CC1 [NEVIRAPINE]	1202.17
CCN(CC)N=O [N-NITROSODIETHYLAMINE]	466.5
O=[As][O-].[Na+] [SODIUM ARSENITE]	1107
CC(CN1c2ccccc2Sc2ccccc21)N(C)C (stereo not given) [PROMETHAZINE]	1244.83

Please find the next compound below.
Sure, the documented PLATELET COUNT for CCO [ALCOHOL] is 1107

====

Organism: Rattus norvegicus
test: DrugMatrix - Regimen: Daily Repeat
Type: toxicity, organism-based, Sprague-Dawley
Set-up: regimen Daily Repeat, gender Male, age 6-8 weeks
protocol.conditions: in vivo, po, 0 mg/kg, 72 h, tissue Plasma, route oral GAVAGE, dose level Control, time 3 day, vehicle .5 % CMC
property.measured: TOTAL PROTEIN (G/DL)
Number only, in G/DL; omit the unit.

compound	TOTAL PROTEIN [G/DL]
COc1cc(NC(C)CCCN)c2ncccc2c1 (centres undefined) [PRIMAQUINE]	6.28
NCC(CC(=O)O)c1ccc(Cl)cc1 (centres undefined) [BACLOFEN]	5.9
Nc1ccc(C(=O)O)c(O)c1 [AMINOSALICYLIC ACID]	6.35
CCOc1cc(N)c(Cl)cc1C(=O)NCC1CN(Cc2ccc(F)cc2)CCO1 (centres undefined) [MOSAPRIDE]	5.9
CCN(CC)CCNC(=O)c1cc(Cl)c(N)cc1OC [METOCLOPRAMIDE]	5.9

Recorded TOTAL PROTEIN (compound O=C1c2ccccc2C(=O)C1c1ccccc1 [PHENINDIONE] ): 6.8

// sample CCN1CCCC1CNC(=O)c1cc(S(N)(=O)=O)ccc1OC (centres undefined) [SULPIRIDE] , its TOTAL PROTEIN was 5.77

Reported TOTAL PROTEIN of CN(C)CCOC(c1ccccc1)c1ccccc1.Cn1c(=O)c2[nH]c(Cl)nc2n(C)c1=O [DIMENHYDRINATE] : 5.8

TOTAL PROTEIN in this record for NC(=O)NC(=O)Cc1ccccc1 [PHENACEMIDE] : 6.25

Given item "NC(=O)CN1CCCC1=O" , the value recorded as its TOTAL PROTEIN is 5.75

Record CC(C)(C#N)c1cc(Cn2cncn2)cc(C(C)(C)C#N)c1 [ANASTROZOLE] , field TOTAL PROTEIN: 5.95

TOTAL PROTEIN for CCN1CCN(c2cc3c(cc2F)c(=O)c(C(=O)O)cn3C2CC2)CC1 [ENROFLOXACIN] is 5.9

Reported TOTAL PROTEIN for COc1cc(/C=C/C(=O)O)ccc1O [FERULATE] was 5.98

# compound COc1ccc(Cl)cc1C(=O)NCCc1ccc(S(=O)(=O)NC(=O)NC2CCCCC2)cc1 [GLYBURIDE] ; its TOTAL PROTEIN = 6.35
